assay: Cmax in ICR mouse at 10 mg/kg, po measured at 0.5 to 24 hrs by LC-MS/MS analysis; assay type: ADME, organism-based; parameters: dose 10 mg/kg, time 0.5-24 hrs, route po; settings: in vivo
PARAMETER MEASURED: Cmax (ng/mL)

Cc1cc(F)ccc1Oc1cc(C(F)(F)F)ccc1C(=O)Nc1ccn(COP(=O)(O)O)c(=O)c1 ... 1230
Cc1nc(N2CCCC(F)(F)CC2)c(C(=O)Nc2ccc3c(c2)C(=O)NC3)cc1Cl ... 1120

###

target: Sodium channel protein type 10 subunit alpha (Homo sapiens, UniProt Q9Y5Y9); assay: Inhibition of human Nav1.8 expressed in HEK293 cells at -80 mV holding potential by whole-cell patch-clamp technique; assay type: cell-based
Sequence (Q9Y5Y9 whole entry): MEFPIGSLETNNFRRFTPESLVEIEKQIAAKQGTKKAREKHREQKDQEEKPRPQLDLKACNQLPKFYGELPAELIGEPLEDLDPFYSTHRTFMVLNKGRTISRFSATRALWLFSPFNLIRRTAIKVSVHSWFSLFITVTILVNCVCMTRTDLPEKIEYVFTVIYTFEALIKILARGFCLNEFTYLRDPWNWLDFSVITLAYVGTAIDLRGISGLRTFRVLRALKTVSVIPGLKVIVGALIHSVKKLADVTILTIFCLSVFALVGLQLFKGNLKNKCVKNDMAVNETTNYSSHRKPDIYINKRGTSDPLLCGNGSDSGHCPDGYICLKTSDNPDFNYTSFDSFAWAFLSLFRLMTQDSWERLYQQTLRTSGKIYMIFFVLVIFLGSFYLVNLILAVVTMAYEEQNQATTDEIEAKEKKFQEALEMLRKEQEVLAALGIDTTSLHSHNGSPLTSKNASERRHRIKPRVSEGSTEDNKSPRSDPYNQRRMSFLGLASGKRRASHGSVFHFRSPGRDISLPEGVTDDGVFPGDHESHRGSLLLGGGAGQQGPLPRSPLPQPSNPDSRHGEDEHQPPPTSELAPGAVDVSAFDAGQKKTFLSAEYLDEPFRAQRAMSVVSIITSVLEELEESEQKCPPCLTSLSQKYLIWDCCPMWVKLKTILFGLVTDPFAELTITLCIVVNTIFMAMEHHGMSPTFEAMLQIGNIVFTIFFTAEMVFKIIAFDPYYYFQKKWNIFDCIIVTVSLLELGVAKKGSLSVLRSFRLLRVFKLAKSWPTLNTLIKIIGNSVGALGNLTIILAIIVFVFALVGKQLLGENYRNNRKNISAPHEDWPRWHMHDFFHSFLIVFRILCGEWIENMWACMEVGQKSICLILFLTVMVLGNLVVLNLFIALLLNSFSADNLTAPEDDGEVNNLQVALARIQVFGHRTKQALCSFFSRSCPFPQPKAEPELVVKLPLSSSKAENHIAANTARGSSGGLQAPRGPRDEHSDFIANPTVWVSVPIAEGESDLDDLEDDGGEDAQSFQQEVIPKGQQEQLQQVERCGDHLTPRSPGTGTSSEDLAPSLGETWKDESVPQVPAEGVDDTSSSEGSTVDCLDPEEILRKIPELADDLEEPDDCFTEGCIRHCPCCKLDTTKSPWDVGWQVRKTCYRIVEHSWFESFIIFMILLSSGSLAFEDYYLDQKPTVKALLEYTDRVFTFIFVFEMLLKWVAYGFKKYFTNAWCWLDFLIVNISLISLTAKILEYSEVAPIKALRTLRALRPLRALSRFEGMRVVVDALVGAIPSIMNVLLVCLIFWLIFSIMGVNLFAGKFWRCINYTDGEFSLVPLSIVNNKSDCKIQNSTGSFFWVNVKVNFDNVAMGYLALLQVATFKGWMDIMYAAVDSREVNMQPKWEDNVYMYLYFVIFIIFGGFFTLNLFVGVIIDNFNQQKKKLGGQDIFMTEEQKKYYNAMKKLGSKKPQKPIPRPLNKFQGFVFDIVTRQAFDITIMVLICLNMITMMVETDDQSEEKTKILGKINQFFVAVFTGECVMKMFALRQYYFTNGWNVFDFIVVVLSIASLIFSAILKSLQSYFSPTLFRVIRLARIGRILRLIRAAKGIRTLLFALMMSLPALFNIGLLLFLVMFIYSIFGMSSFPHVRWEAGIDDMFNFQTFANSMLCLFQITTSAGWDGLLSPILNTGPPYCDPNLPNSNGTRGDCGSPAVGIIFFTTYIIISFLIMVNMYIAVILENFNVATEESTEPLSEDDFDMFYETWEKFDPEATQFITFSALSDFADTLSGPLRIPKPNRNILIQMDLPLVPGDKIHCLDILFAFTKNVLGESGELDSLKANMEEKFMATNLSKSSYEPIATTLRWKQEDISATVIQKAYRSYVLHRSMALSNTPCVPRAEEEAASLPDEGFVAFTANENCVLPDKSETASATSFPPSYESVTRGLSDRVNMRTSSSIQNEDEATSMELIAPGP
PARAMETER MEASURED: IC50 (nM)

[1] Cc1cc(F)ccc1Oc1cc(C(F)(F)F)ccc1C(=O)Nc1ccn(COP(=O)(O)O)c(=O)c1
[2] Cc1nc(N2CCCC(F)(F)CC2)c(C(=O)Nc2ccc3c(c2)C(=O)NC3)cc1Cl
Exercise: Which record shows the lower IC50: the first, 1 , or the second, 2 ? API: response body contains the label of the selected item.
Key: 1
(1: 33.5 nM, 2: 50.2 nM)
